// Ratio IC50 lookup, one value per entry
assay_procedure: Selectivity ratio of IC50 for equine BuChE to IC50 for bovine AChE
Hey, just send me the number, nothing else.

- compound: "CCCCN(C)C(=O)Oc1cccc2c1C(CCC(=O)OC)CN2C.Cl (stereo unspecified)"
  val: 2.89
- compound: "COC(=O)CCC1CNc2cccc(OC(=O)N(C)c3ccc(OC)cc3)c21.Cl (stereo unspecified)"
  val: 3.8
- compound: "CCN(C)C(=O)Oc1cccc2c1C(CCN)CN2 (stereo unspecified)"
  val: 0.5
- compound: "CCN(C)C(=O)Oc1cccc2c1CCN2.Cl"
  val: 0.1

Memo: CCN(C)C(=O)Oc1cccc2c1C(CCC(=O)OC)CN2 (stereo unspecified) , reported Ratio IC50: 0.04

Memo: CCN(C)C(=O)Oc1ccc2c(c1)NCC2CCC(=O)OC (stereo unspecified) , reported Ratio IC50: 0.07

Memo: C#CCN[C@@H]1CCc2ccc(OC(=O)N(C)CC)cc21 , reported Ratio IC50: 0.06

Memo: CCCCN(C)C(=O)Oc1ccc2c(c1)NCC2CCC(=O)OC.Cl (stereo unspecified) , reported Ratio IC50: 6.5

Memo: CCN(C)C(=O)Oc1ccc2c(c1)N(C)CC2 , reported Ratio IC50: 0.14

Memo: COc1ccc(N(C)C(=O)Oc2cccc3c2C(CCC(=O)O)CN3)cc1 (stereo unspecified) , reported Ratio IC50: 11

* * *

Here's what we have: log10 of IC50 numbers for UniProtKB P23795.
Sequence (P23795 whole entry): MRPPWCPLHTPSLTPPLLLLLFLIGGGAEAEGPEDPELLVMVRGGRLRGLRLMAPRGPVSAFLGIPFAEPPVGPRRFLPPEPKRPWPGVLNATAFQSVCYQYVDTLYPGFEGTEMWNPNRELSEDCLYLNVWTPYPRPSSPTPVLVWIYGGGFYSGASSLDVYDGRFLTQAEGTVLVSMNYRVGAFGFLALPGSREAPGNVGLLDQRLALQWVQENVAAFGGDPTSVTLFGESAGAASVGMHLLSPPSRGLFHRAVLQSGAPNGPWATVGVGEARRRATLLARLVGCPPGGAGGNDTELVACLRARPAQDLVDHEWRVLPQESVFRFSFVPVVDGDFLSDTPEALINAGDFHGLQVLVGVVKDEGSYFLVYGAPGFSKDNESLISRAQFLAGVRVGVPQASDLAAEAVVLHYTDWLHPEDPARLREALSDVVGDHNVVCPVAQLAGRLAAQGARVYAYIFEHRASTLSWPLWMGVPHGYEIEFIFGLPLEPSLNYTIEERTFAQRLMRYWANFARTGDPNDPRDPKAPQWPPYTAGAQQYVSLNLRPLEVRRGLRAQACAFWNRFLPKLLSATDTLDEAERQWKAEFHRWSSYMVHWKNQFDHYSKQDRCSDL
A difference of one corresponds to tenfold IC50; all values are log10 with IC50 in µM.

Reference set, count: 5
- compound: "CCN(C)C(=O)Oc1cccc2c1CCN2.Cl"
  val: 0.86
- compound: "CCCCN(C)C(=O)Oc1ccc2c(c1)N(C)CC2CCC(=O)OC (stereo not drawn)"
  val: 2.09
- compound: "CCN(C)C(=O)Oc1cccc2c1c(CCC(=O)OC)cn2C"
  val: 2.26
- compound: "CCN(C)C(=O)Oc1ccc2c(c1)NCC2CCC(=O)O.Cl (stereo not drawn)"
  val: 2.24
- compound: "CCN(C)C(=O)Oc1cccc2c1C(CCC(=O)O)CN2 (stereo not drawn)"
  val: 1.28

// compound COc1ccc(N(C)C(=O)Oc2cccc3c2C(CCC(=O)O)CN3)cc1 (stereo not drawn) , assay UniProtKB P23795, log10 of IC50 value: 1.58

// compound CCN(C)C(=O)Oc1cccc([C@H](C)N(C)C)c1 [RIVASTIGMINE] , assay UniProtKB P23795, log10 of IC50 value: -0.21

// compound CN(C)C(=O)Oc1cccc2c1CCN2.Cl , assay UniProtKB P23795, log10 of IC50 value: 0.08

* * *

Tested on: H9c2
assay_procedure: Prevention of apoptosis in rat H9c2 cells assessed as protection against oxidative stress-induced cytotoxicity at 100 nM […] by Alamar blue assay
Format: functional
Calls of active or inactive are those of the source. The rule behind the calls is not given here.
parameter: Activity

Reference set, count: 10
- compound: "COC(=O)CCC1CN(C)c2cc(OC(=O)N(C)c3ccc(OC)cc3)ccc21.Cl (stereo unspecified)"
  Activity: "33.3%"
- compound: "CCCCN(C)C(=O)Oc1ccc2c(c1)NCC2CCC(=O)OC.Cl (stereo unspecified)"
  Activity: "40.1%"
- compound: "O=C(O)CCC1CNc2cc(O)ccc21 (stereo unspecified)"
  Activity: "inactive"
- compound: "CCN(C)C(=O)Oc1cccc2c1CCN2.Cl"
  Activity: "35.3%"
- compound: "CCN(C)C(=O)Oc1ccc2c(c1)NCC2CCC(=O)OC.Cl (stereo unspecified)"
  Activity: "58.5%"
- compound: "O=c1c(O)c(-c2ccc(O)c(O)c2)oc2cc(O)cc(O)c12"
  Activity: "45.1%"
- compound: "CCN(C)C(=O)Oc1cccc2c1C(CCC(N)=O)CN2.Cl (stereo unspecified)"
  Activity: "55.2%"
- compound: "COc1ccc(N(C)C(=O)Oc2cccc3c2C(CCC(=O)O)CN3C)cc1 (stereo unspecified)"
  Activity: "inactive"
- compound: "CCN(C)C(=O)Oc1ccc2c(c1)NCC2CCC(=O)O.Cl (stereo unspecified)"
  Activity: "56.1%"
- compound: "COC(=O)CCC1CNc2cccc(OC(=O)N(C)c3ccc(OC)cc3)c21.Cl (stereo unspecified)"
  Activity: "43.1%"

Could you now look at the following compound, please?
Memo: CCN(C)C(=O)Oc1cccc2c1C(CCC(=O)OC)CN2.Cl (stereo unspecified) , reported Activity: 73%

* * *

assay_procedure: Antioxidant activity assessed as scavenging of morpholino sydononimine based nitric oxide release by chemiluminescence assay
Format: functional
// IC50 lookup, one value per entry
Please state the figure in µM; there is no need to write the unit.

- compound: "COc1ccc2[nH]cc(CCNC(C)=O)c2c1"
  val: 1020
- compound: "CCN(C)C(=O)Oc1cccc2c1CCN2.Cl"
  val: 0.57
- compound: "COC(=O)CCC1CNc2cccc(OC(=O)N(C)c3ccc(OC)cc3)c21.Cl (stereo not drawn)"
  val: 3.18

Could you now look at the following compound, please?
Memo: CCN(C)C(=O)Oc1cccc2c1C(CCC(=O)OC)CN2.Cl (stereo not drawn) , reported IC50: 4.55

* * *

Test system: H9c2
assay_procedure: Prevention of apoptosis in rat H9c2 cells assessed as protection against oxidative stress-induced cytotoxicity at 100 nM […] by Alamar blue assay
Type: functional
Active and inactive are the calls of the source. The rule behind the calls is not given here.
parameter: Activity

Reference set, count: 10
- molecule: "COc1ccc(N(C)C(=O)Oc2cccc3c2C(CCC(=O)O)CN3)cc1 (configuration not stated)"
  system_name: "H9c2"
  Activity: "inactive"
- molecule: "CC(=O)N[C@@H](CS)C(=O)O"
  system_name: "H9c2"
  Activity: "25.2%"
- molecule: "C#CCN[C@@H]1CCc2ccc(OC(=O)N(C)CC)cc21"
  system_name: "H9c2"
  Activity: "58.5%"
- molecule: "CCN(C)C(=O)Oc1cccc2c1C(CCC(=O)OC)CN2C (configuration not stated)"
  system_name: "H9c2"
  Activity: "inactive"
- molecule: "COC(=O)CCc1c[nH]c2cc(OC(=O)N(C)c3ccc(OC)cc3)ccc12"
  system_name: "H9c2"
  Activity: "43.1%"
- molecule: "COC(=O)CCC1CN(C)c2cccc(OC(=O)N(C)c3ccc(OC)cc3)c21 (configuration not stated)"
  system_name: "H9c2"
  Activity: "inactive"
- molecule: "Cl.Oc1cccc2c1CCN2"
  system_name: "H9c2"
  Activity: "38%"
- molecule: "CCN(C)C(=O)Oc1cccc2c1C(CCC(=O)O)CN2 (configuration not stated)"
  system_name: "H9c2"
  Activity: "inactive"
- molecule: "CCCCN(C)C(=O)Oc1cccc2c1C(CCC(=O)OC)CN2C.Cl (configuration not stated)"
  system_name: "H9c2"
  Activity: "31.5%"
- molecule: "COC(=O)CCC1CNc2cccc(O)c21.Cl (configuration not stated)"
  system_name: "H9c2"
  Activity: "57.3%"

Memo: COC(=O)CCC1CNc2cc(O)ccc21.Cl (configuration not stated) , reported Activity: 50%

Memo: CCN(C)C(=O)Oc1cccc2c1C(CCC(=O)O)CN2C.Cl (configuration not stated) , reported Activity: 57.4%

* * *

assay_procedure: Cytotoxicity against rat H9c2 cells assessed as cell viability in absence of H2O2
Assay type: cell-based
Set-up: concentration or dose not given beside the values
condition_description: read-out: Activity
parameter: viability (%)
Please state the figure in %; there is no need to write the unit.

Reference set, count: 3
- compound: "CCN(C)C(=O)Oc1ccc2c(c1)NCC2CCC(=O)O.Cl (stereo not given)"
  measure_unit: "%"
  viability: 102
- compound: "COC(=O)CCC1CNc2cccc(O)c21.Cl (stereo not given)"
  measure_unit: "%"
  viability: 121
- compound: "CCCCN(C)C(=O)Oc1cccc2c1C(CCC(=O)OC)CN2C.Cl (stereo not given)"
  measure_unit: "%"
  viability: 93.9

Memo: CCN(C)C(=O)Oc1cccc2c1C(CCC(=O)O)CN2 (stereo not given) , reported viability: 93.4

Memo: CCN(C)C(=O)Oc1cccc2c1C(CCC(=O)O)CN2C.Cl (stereo not given) , reported viability: 106

Memo: CCN(C)C(=O)Oc1cccc2c1C(CCC(N)=O)CN2.Cl (stereo not given) , reported viability: 96

Memo: COC(=O)CCC1CNc2cccc(OC(=O)N(C)c3ccc(OC)cc3)c21.Cl (stereo not given) , reported viability: 84.7

Memo: CCN(C)C(=O)Oc1cccc2c1C(CCC(=O)OC)CN2C (stereo not given) , reported viability: 97.3

* * *

assay_procedure: Selectivity ratio of IC50 for equine BuChE to IC50 for bovine AChE
Returns Y if the recorded Ratio IC50 is greater than or equal to 0.5, and N otherwise.

These solved cases illustrate the format of a correct answer.
- compound: "COC(=O)CCC1CN(C)c2cccc(OC(=O)N(C)c3ccc(OC)cc3)c21 (stereo unspecified)"
  label_value: "Y"
- compound: "CCN(C)C(=O)Oc1cccc2c1NCC2CCC(=O)OC (stereo unspecified)"
  label_value: "N"
- compound: "CCCCN(C)C(=O)Oc1ccc2c(c1)N(C)CC2CCC(=O)OC (stereo unspecified)"
  label_value: "Y"

Qu. Tell me whether Ratio IC50 is at least 0.5 here: CCN(C)C(=O)Oc1cccc2c1C(CCC(=O)O)CN2C.Cl (stereo unspecified)
Ans. N

Qu. Tell me whether Ratio IC50 is at least 0.5 here: CCN(C)C(=O)Oc1cccc2[nH]cc(CCC(=O)OC)c12
Ans. N

Qu. Tell me whether Ratio IC50 is at least 0.5 here: CCN(C)C(=O)Oc1cccc2c1C(CCC(N)=O)CN2.Cl (stereo unspecified)
Ans. N

Qu. Tell me whether Ratio IC50 is at least 0.5 here: CN(C)C(=O)Oc1cccc2c1CCN2.Cl
Ans. Y

Qu. Tell me whether Ratio IC50 is at least 0.5 here: CCN(C)C(=O)Oc1ccc2c(c1)NCC2CCC(=O)O.Cl (stereo unspecified)
Ans. N

Qu. Tell me whether Ratio IC50 is at least 0.5 here: CCN(C)C(=O)Oc1cccc2c1C(CCC(=O)OC)CN2C (stereo unspecified)
Ans. N

Qu. Tell me whether Ratio IC50 is at least 0.5 here: CCN(C)C(=O)Oc1cccc2c1C(CCC(=O)O)CN2 (stereo unspecified)
Ans. N

Qu. Tell me whether Ratio IC50 is at least 0.5 here: COC(=O)CCC1CNc2cc(OC(=O)N(C)c3ccc(OC)cc3)ccc21.Cl (stereo unspecified)
Ans. Y

Entry source: ChEMBL document CHEMBL2177019
